Assay: Cytotoxicity against human HGF cells after 24 hrs by MTT assay
Format: cell-based
Entries and their measured IC50 follow.
readout: IC50 (nM)

>  <compound>
COc1ccc(C2=N[C@@H](c3ccc(Cl)cc3)[C@@H](c3ccc(Cl)cc3)N2C(=O)N2CCNC(=O)C2)c(OC(C)C)c1 (relative stereo)

>  <readout>
IC50

>  <unitOfMeasurement>
nM

>  <recordedNumber>
1400

$$$$
>  <compound>
COc1cccc2c1C(=O)c1c(O)c3c(c(O)c1C2=O)C[C@@](O)(C(=O)CO)C[C@@H]3O[C@H]1C[C@H](N)[C@H](O)[C@H](C)O1

>  <readout>
IC50

>  <unitOfMeasurement>
nM

>  <recordedNumber>
500

$$$$
>  <compound>
CCOC(=O)[C@@H]1CS[C@@]2(C(=O)N(C)c3ccc(Br)cc32)N1C(=O)C1CCCCC1 (mixture of isomers)

>  <readout>
IC50

>  <unitOfMeasurement>
nM

>  <recordedNumber>
1600

$$$$
